Test system: 769-P
Procedure Details: minimum viability across doses, drug alone, relative to DMSO (fraction); higher = less growth inhibition
Study Conditions: treatment: drug alone; 5 days
Reported minimum viability across doses values for the following compounds.

- Compound: "O=C1c2ccccc2-c2n[nH]c3cccc1c23"
  minimum viability across doses: 0.799
- Compound: "CS(=O)(=O)CCNCc1ccc(-c2ccc3ncnc(Nc4ccc(OCc5cccc(F)c5)c(Cl)c4)c3c2)o1.Cc1ccc(S(=O)(=O)O)cc1.Cc1ccc(S(=O)(=O)O)cc1 [Lapatinib Ditosylate (Tykerb)]"
  minimum viability across doses: 0.455
- Compound: "CC[C@H](CO)Nc1nc(NCc2ccccc2)c2ncn(C(C)C)c2n1 [Roscovitine (Seliciclib, CYC202)]"
  minimum viability across doses: 0.848
- Compound: "CCc1cc(Nc2nccc(-c3c(-c4ccc(OC)c(C(=O)Nc5c(F)cccc5F)c4)nc4ccccn34)n2)c(OC)cc1N1CCC(N2CCN(S(C)(=O)=O)CC2)CC1"
  minimum viability across doses: 0.828

----------
System: TK-10
Procedure Details: minimum viability across doses, drug alone, relative to DMSO (fraction); higher = less growth inhibition
Study Conditions: treatment: drug alone; 5 days
Reported minimum viability across doses values for the following molecules.

- Molecule: "CC(C)(C)c1cc(NC(=O)Nc2ccc(-c3cn4c(n3)sc3cc(OCCN5CCOCC5)ccc34)cc2)no1 [Quizartinib (AC220)]"
  minimum viability across doses: 0.612
- Molecule: "COc1cc(OC)c(/C=C/S(=O)(=O)Cc2ccc(OC)c(NCC(=O)[O][Na])c2)c(OC)c1"
  minimum viability across doses: 0.273
- Molecule: "CS(=O)(=O)O.Cc1ccc(NC(=O)c2ccc(CN3CCN(C)CC3)cc2)cc1Nc1nccc(-c2cccnc2)n1 [Imatinib Mesylate]"
  minimum viability across doses: 0.861
- Molecule: "COc1cc(Nc2ncc(F)c(Nc3ccc4c(n3)NC(=O)C(C)(C)O4)n2)cc(OC)c1OC [R406(free base)]"
  minimum viability across doses: 0.396
- Molecule: "Cc1ccc(NC(=O)c2cccc(C(C)(C)C#N)c2)cc1Nc1ccc2ncn(C)c(=O)c2c1 [AZ628]"
  minimum viability across doses: 0.425
- Molecule: "O=C(Nc1ccc(OC(F)(F)F)cc1)c1sccc1NCc1ccnc2ccccc12 [OSI-930]"
  minimum viability across doses: 0.572
- Molecule: "CN1CCN(c2nc(C3=C(c4c[nH]c5ccccc45)C(=O)NC3=O)c3ccccc3n2)CC1 [Sotrastaurin (AEB071)]"
  minimum viability across doses: 0.805
- Molecule: "CCS(=O)(=O)N1CC(CC#N)(n2cc(-c3ncnc4[nH]ccc34)cn2)C1"
  minimum viability across doses: 0.817
- Molecule: "Nc1nc(Nc2ccc(S(N)(=O)=O)cc2)nn1C(=O)c1c(F)cccc1F"
  minimum viability across doses: 0.573
- Molecule: "C=CC(=O)Nc1cc2c(Nc3ccc(F)c(Cl)c3)ncnc2cc1OCCCN1CCOCC1 [CI-1033 (Canertinib)]"
  minimum viability across doses: 0.156
- Molecule: "Nc1ccc(-c2ccc3ncc4ccc(=O)n(-c5cccc(C(F)(F)F)c5)c4c3c2)cn1 [Torin 2]"
  minimum viability across doses: 0.0151
- Molecule: "OCCn1cc(-c2ccc3c(c2)CC/C3=N\\O)c(-c2ccncc2)n1 [GDC-0879]"
  minimum viability across doses: 0.937
- Molecule: "CS(=O)(=O)CCNCc1ccc(-c2ccc3ncnc(Nc4ccc(OCc5cccc(F)c5)c(Cl)c4)c3c2)o1.Cc1ccc(S(=O)(=O)O)cc1.Cc1ccc(S(=O)(=O)O)cc1 [Lapatinib Ditosylate (Tykerb)]"
  minimum viability across doses: 0.39
- Molecule: "CCn1cc(-c2ccnc3[nH]c(-c4cccc(CN(C)C)c4)cc23)c(-c2ccc(NC(=O)N(C)C)cc2)n1"
  minimum viability across doses: 0.0985
- Molecule: "COc1cc(CCc2cc(NC(=O)c3ccc(N4C[C@@H](C)N[C@@H](C)C4)cc3)n[nH]2)cc(OC)c1 [AZD4547]"
  minimum viability across doses: 0.51
- Molecule: "NC(=O)c1ccc(N(C(N)=O)c2c(F)cccc2F)nc1-c1ccc(F)cc1F [VX-702]"
  minimum viability across doses: 0.674
- Molecule: "Cc1ccc(C(=O)Nc2cccc(C(F)(F)F)c2)cc1Nc1nc(-c2cccnc2)nc2c1cnn2C [NVP-BHG712]"
  minimum viability across doses: 0.0678
- Molecule: "COc1ccc(-c2ccc3ncc4c(c3c2)n(-c2ccc(N3CCNCC3)c(C(F)(F)F)c2)c(=O)n4C)cn1.O=C(O)/C=C\\C(=O)O [NVP-BGT226]"
  minimum viability across doses: 0.00394
- Molecule: "Nc1nc(N)c2nc(-c3cccc(O)c3)cnc2n1"
  minimum viability across doses: 0.32
- Molecule: "CN1CCN(c2ccc3nc(-c4c(N)c5c(F)cccc5[nH]c4=O)[nH]c3c2)CC1 [Dovitinib (TKI-258)]"
  minimum viability across doses: 0.252
- Molecule: "NC1(Cc2ccc(Cl)cc2)CCN(c2ncnc3[nH]ccc23)CC1"
  minimum viability across doses: 0.284
- Molecule: "CCC[C@H](NC(=O)/C(C#N)=C/c1cccc(Br)n1)c1ccccc1 [WP1130]"
  minimum viability across doses: 0.0704
- Molecule: "COCCOc1ccc2c(c1)ncn2-c1ccc2cccc(N3CCC(N)CC3)c2n1"
  minimum viability across doses: 0.198
- Molecule: "O=c1cc(N2CCOCC2)oc2c(-c3ccccc3)cccc12"
  minimum viability across doses: 0.684
- Molecule: "NC(=O)Nc1cc(-c2cccc(F)c2)sc1C(=O)N[C@H]1CCCNC1 [AZD7762]"
  minimum viability across doses: 0.0208
- Molecule: "COc1cc2nccc(Oc3ccc(NC(=O)NC4CC4)c(Cl)c3)c2cc1C(N)=O [E7080 (Lenvatinib)]"
  minimum viability across doses: 0.806
- Molecule: "Cc1[nH]c(/C=C2\\C(=O)Nc3ccccc32)c(C)c1CCC(=O)O [TSU-68]"
  minimum viability across doses: 0.855
- Molecule: "O=C(NOCC(O)CO)c1cc(Br)c(F)c(F)c1Nc1ccc(I)cc1F (stereo not given)"
  minimum viability across doses: 0.419
- Molecule: "COc1ccc(COc2cc3oc(=O)c4cc(C(C)O)ccc4c3cc2OC)cc1 (stereo not given) [Palomid 529]"
  minimum viability across doses: 0.633
- Molecule: "OCCn1cc(-c2cnc3nnn(Cc4ccc5ncccc5c4)c3n2)cn1"
  minimum viability across doses: 0.804
